Test: Rat PK evaluation
Type: in vivo
Settings: rat, plasma; SD rats, PO 5 mg/kg, n = 3, median; read-out: Tmax po (time to peak plasma concentration)
property: Tmax (h)

[I] COc1cc2nccc(Oc3ccc(NC(=O)c4nn(C5CC5)cc(-c5ccc(F)cc5)c4=O)cn3)c2cc1OC
[II] COc1cc2nccc(Oc3ccc(NC(=O)c4cn(C5CC5)cc(-c5ccc(F)cc5)c4=O)nc3)c2cc1OC
Param pair: I , II . Output: the one whose Tmax is numerically greater. Reply briefly: the label of your chosen item.
II
(II: 6 h, I: 4 h)

====

Molecular target: Tyro-3 (h) (Homo sapiens)
Construct: purchased
Sequence (Q06418 41-890): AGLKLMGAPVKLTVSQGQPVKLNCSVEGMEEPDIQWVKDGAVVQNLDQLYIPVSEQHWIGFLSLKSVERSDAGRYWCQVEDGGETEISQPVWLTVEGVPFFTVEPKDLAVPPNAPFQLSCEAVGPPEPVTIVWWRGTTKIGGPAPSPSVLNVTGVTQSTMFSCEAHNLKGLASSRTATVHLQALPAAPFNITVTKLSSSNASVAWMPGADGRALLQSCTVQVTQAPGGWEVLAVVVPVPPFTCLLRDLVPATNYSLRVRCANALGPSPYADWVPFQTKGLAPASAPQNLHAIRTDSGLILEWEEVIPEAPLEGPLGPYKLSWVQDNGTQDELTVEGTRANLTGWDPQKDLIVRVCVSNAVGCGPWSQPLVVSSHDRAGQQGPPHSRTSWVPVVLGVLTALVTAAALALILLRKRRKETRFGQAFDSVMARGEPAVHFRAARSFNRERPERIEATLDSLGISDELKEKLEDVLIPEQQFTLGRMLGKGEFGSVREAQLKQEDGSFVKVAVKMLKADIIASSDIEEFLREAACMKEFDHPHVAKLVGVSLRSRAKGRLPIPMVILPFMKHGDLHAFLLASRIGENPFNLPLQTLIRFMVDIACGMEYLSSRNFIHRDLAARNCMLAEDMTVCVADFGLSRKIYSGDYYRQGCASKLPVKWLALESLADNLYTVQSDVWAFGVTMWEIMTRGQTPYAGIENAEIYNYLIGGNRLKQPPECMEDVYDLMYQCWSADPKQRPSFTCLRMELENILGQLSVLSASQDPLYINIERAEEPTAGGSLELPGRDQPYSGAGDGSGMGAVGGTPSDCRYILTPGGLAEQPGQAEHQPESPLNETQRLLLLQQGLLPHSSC
Experiment: Enzymatic activity test, Tyro-3 (h)
Format: biochemical
Settings: 10 μM [γ-33P]-ATP, 40 minutes, room temperature
property: IC50 (nM)

COc1cc2nccc(Oc3ccc(NC(=O)c4cn(C5CC5)cc(-c5ccc(F)cc5)c4=O)nc3)c2cc1OC | 16

[a] COc1cc2nccc(Oc3ccc(NC(=O)c4nn(C(C)C)cc(-c5ccc(F)cc5)c4=O)nc3)c2cc1OC
[b] COc1cc2nccc(Oc3ccc(NC(=O)c4nn(C5CC5)cc(-c5ccc(F)cc5)c4=O)cn3)c2cc1OC
[c] COc1cc2nccc(Oc3ccc(NC(=O)c4cn(C(C)C)nc(-c5ccc(F)cc5)c4=O)cn3)c2cc1OC
Rank items: key IC50, increasing. Output the labels ranked as instructed.
b, a, c

====

Assay: Rat PK evaluation
Format: in vivo
Conditions: rat, plasma; SD rats, IV 1 mg/kg, PO 5 mg/kg, n = 3; read-out: F % (absolute bioavailability)
property: bioavailability (%)

Example results:
COc1cc2nccc(Oc3ccc(NC(=O)c4cn(C(C)C)nc(-c5ccc(F)cc5)c4=O)cn3)c2cc1OC [Compound 38] | 81.6
COc1cc2nccc(Oc3cnc(NC(=O)c4cn(C(C)C)nc(-c5ccc(F)cc5)c4=O)nc3)c2cc1OC [Compound 39] | 90.2
COc1cc2nccc(Oc3ccc(NC(=O)c4nn(C5CC5)cc(-c5ccc(F)cc5)c4=O)nc3)c2cc1OC [Compound 31] | 27.7
COc1cc2nccc(Oc3ccc(NC(=O)c4nn(C5CC5)cc(-c5ccc(F)cc5)c4=O)cn3)c2cc1OC [Compound 36] | 57.5
COc1cc2nccc(Oc3ncc(NC(=O)c4nn(C(C)C)cc(-c5ccc(F)cc5)c4=O)cn3)c2cc1OC [Compound 34] | 80.4

[P] COc1cc2nccc(Oc3ncc(NC(=O)c4nn(C5CC5)cc(-c5ccc(F)cc5)c4=O)cn3)c2cc1OC [Compound 37]
[Q] COc1cc2nccc(Oc3cnc(NC(=O)c4nn(C(C)C)cc(-c5ccc(F)cc5)c4=O)nc3)c2cc1OC [Compound 16]
Could you determine which record has the numerically smaller bioavailability? Candidates: P and Q Reply briefly: the label of your chosen item.
Q

====

Target: H1299 cell pAxl (Homo sapiens, UniProt P30530)
Construct: endogenous in cells
Sequence (P30530 26-894): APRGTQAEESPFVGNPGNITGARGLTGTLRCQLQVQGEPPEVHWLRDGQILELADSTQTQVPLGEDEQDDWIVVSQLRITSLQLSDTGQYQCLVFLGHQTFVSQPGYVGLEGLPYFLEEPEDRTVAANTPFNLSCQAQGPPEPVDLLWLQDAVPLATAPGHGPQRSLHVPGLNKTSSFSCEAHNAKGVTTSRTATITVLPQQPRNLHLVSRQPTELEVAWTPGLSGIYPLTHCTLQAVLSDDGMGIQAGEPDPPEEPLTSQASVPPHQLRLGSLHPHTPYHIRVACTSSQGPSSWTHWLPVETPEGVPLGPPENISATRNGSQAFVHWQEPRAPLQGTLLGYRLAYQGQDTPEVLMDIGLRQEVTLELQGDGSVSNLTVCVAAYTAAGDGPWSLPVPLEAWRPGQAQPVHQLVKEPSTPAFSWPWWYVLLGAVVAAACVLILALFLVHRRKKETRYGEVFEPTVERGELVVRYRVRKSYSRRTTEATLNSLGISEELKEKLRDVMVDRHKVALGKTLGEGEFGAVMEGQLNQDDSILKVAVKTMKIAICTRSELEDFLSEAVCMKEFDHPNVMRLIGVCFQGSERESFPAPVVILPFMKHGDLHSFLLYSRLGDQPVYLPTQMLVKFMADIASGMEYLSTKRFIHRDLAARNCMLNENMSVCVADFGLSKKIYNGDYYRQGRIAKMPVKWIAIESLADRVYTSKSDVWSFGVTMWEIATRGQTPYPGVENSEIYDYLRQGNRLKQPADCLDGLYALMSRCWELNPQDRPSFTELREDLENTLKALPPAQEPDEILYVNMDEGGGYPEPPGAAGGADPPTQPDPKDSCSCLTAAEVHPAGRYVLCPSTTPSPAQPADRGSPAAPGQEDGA
Assay: Inhibitory activity on the cell pAxl (Western Blot)
Conditions: H1299 cells, compound 1.1, 3.3, 10, 30 nM, hGAS6 200 ng/mL
pIC50: −log10 of the molar value.
property: pIC50

Example results:
COc1cc2nccc(Oc3cnc(NC(=O)c4cn(C5CC5)cc(-c5ccc(F)cc5)c4=O)nc3)c2cc1OC [Compound 32] | > 8.96
COc1cc2nccc(Oc3ncc(NC(=O)c4nn(C(C)C)cc(-c5ccc(F)cc5)c4=O)cn3)c2cc1OC [Compound 34] | > 8.96
COc1cc2nccc(Oc3cnc(NC(=O)c4nn(C(C)C)cc(-c5ccc(F)cc5)c4=O)nc3)c2cc1OC [Compound 16] | > 8.96
COc1cc2nccc(Oc3ccc(NC(=O)c4cn(C(C)C)cc(-c5ccc(C)cc5)c4=O)nc3)c2cc1OC [Compound 1] | > 8.96
COc1cc2nccc(Oc3ccc(NC(=O)c4cn(C5CC5)nc(-c5ccc(F)cc5)c4=O)nc3)c2cc1OC [Compound 42] | 8.48 to 8.96

With those in mind, consider the next compound.
Look up and state reported pIC50 for COc1cc2nccc(Oc3ccc(NC(=O)c4nn(C5CC5)cc(-c5ccc(C)cc5)c4=O)nc3)c2cc1OC [Compound 46]
> 8.96

====

Test: Stability in liver microsome of dogs
Assay type: in vitro ADME
Details: Dog liver microsome 0.5 mg protein/mL, compound 1 μM, 37° C.
property: t1/2

Example results:
COc1cc2nccc(Oc3cnc(NC(=O)c4cn(C(C)C)nc(-c5ccc(F)cc5)c4=O)nc3)c2cc1OC [Compound 39] | →∞
COc1cc2nccc(Oc3ccc(NC(=O)c4cn(C5CC5)nc(-c5ccc(F)cc5)c4=O)nc3)c2cc1OC [Compound 42] | →∞
COc1cc2nccc(Oc3cnc(NC(=O)c4nn(C5CC5)cc(-c5ccc(F)cc5)c4=O)nc3)c2cc1OC [Compound 33] | →∞
COc1cc2nccc(Oc3ccc(NC(=O)c4nn(C5CC5)cc(-c5ccc(F)cc5)c4=O)nc3)c2cc1OC [Compound 31] | →∞

Look up and state reported t1/2 for COc1cc2nccc(Oc3ncc(NC(=O)c4cn(C(C)C)nc(-c5ccc(F)cc5)c4=O)cn3)c2cc1OC [Compound 40]
→∞

====

Listing of recorded IC50 by entry.
Target: H1299 cell pMer (Homo sapiens, UniProt Q12866)
Construct: The H1299 cells were inoculated in a 6-well plate; endogenous in cells
Sequence (Q12866 21-999): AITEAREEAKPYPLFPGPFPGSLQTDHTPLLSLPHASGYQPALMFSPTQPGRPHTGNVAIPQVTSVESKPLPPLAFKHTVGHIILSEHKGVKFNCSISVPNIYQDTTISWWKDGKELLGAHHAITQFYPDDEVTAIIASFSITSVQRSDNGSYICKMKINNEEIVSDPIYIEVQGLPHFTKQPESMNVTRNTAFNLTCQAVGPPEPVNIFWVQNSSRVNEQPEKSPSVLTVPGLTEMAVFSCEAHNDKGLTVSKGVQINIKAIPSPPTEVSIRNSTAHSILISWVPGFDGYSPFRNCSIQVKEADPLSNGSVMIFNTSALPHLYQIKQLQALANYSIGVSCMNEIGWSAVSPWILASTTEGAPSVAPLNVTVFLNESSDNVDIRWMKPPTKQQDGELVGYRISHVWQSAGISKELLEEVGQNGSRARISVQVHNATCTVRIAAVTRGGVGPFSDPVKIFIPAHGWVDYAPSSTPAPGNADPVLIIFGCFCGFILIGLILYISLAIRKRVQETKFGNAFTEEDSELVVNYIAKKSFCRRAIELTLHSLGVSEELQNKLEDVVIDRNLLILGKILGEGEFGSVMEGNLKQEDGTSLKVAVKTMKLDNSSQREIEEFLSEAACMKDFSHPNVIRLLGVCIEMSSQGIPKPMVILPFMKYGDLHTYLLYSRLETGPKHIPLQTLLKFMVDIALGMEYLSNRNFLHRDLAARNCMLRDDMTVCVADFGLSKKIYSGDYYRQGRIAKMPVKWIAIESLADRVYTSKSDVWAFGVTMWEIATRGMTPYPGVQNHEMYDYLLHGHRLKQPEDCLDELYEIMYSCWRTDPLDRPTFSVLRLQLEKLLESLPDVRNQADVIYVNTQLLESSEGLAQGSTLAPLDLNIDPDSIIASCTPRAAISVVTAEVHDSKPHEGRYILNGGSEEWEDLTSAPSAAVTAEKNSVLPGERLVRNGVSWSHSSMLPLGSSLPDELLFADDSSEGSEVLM
Experiment: Inhibitory activity on the cell pMer (Western Blot)
Details: H1299 cells, compound 0.35, 1.1, 3.3, 10 nM, Human MerMab 200 ng/mL

Example results:
COc1cc2nccc(Oc3cnc(NC(=O)c4nn(C(C)C)cc(-c5ccc(F)cc5)c4=O)nc3)c2cc1OC | < 1.1 nM
COc1cc2nccc(Oc3ccc(NC(=O)c4nn(C5CC5)cc(-c5ccc(F)cc5)c4=O)nc3)c2cc1OC | < 0.35 nM
COc1cc2nccc(Oc3ccc(NC(=O)c4cn(C(C)C)nc(-c5ccc(F)cc5)c4=O)nc3)c2cc1OC | < 3.3 nM

Look up and state reported IC50 for COc1cc2nccc(Oc3ncc(NC(=O)c4nn(C(C)C)cc(-c5ccc(F)cc5)c4=O)cn3)c2cc1OC
< 1.1 nM

Numbers sourced from patent US20220073496A1.
